- Tested on: Lens
- experiment_summary: Suppression of sorbitol accumulation in cultured lens
- Format: cell-based, Wistar rats
- measurement_parameters: concentration 5 μg/ml; rat lens cultured 20 hours with 0.9% glucose
Values of inhibition at 5 µg/mL greater than or equal to 80% map to satisfied; values below map to not satisfied.

>  <compound>
O=C(O)CCc1ccc(O)c(-c2cc(CCC(=O)O)ccc2OCc2ccccc2)c1 [Example 1]

>  <cat>
not satisfied

$$$$
>  <compound>
CCCCCCCCOc1ccc(CCC(=O)O)cc1-c1cc(CCC(=O)O)ccc1O [Example 10]

>  <cat>
not satisfied

$$$$
>  <compound>
CCCCCCCOc1ccc(CCC(=O)O)cc1-c1cc(CCC(=O)O)ccc1O [Example 9]

>  <cat>
not satisfied

$$$$
>  <compound>
O=C(O)CCc1ccc(O)c(-c2cc(CCC(=O)O)ccc2OCC2CCCCC2)c1 [Example 3]

>  <cat>
satisfied

$$$$

###

- system_tested: partially purified bovine lens aldose reductase (Bos taurus, UniProt P16116)
- Construct: partially purified bovine lens aldose reductase; from tissue; host or cells: bovine lens
- experiment_summary: Inhibitory activity on aldose reductase enzyme reaction
- Format: biochemical
- measurement_parameters: concentration 0.1 μg/ml
Listed below: inhibition at 0.1 µg/mL values for each entry.

>  <compound>
CCOc1ccc(CCC(=O)O)cc1-c1cc(CCC(=O)O)ccc1O

>  <inhibition at 0.1 µg/mL (%)>
55

$$$$
>  <compound>
CCCCOc1ccc(CCC(=O)O)cc1-c1cc(CCC(=O)O)ccc1O

>  <inhibition at 0.1 µg/mL (%)>
58.6

$$$$
>  <compound>
CCCCCOc1ccc(CCC(=O)O)cc1-c1cc(CCC(=O)O)ccc1O

>  <inhibition at 0.1 µg/mL (%)>
56.4

$$$$
>  <compound>
CCCCCCCOc1ccc(CCCC(=O)O)cc1-c1cc(CCCC(=O)O)ccc1O

>  <inhibition at 0.1 µg/mL (%)>
69.2

$$$$
>  <compound>
CCCCCCCCOc1ccc(CCC(=O)O)cc1-c1cc(CCC(=O)O)ccc1O

>  <inhibition at 0.1 µg/mL (%)>
67.4

$$$$
>  <compound>
CCCCCCOc1ccc(CCC(=O)O)cc1-c1cc(CCC(=O)O)ccc1O

>  <inhibition at 0.1 µg/mL (%)>
58.6

$$$$
>  <compound>
O=C(O)CCCc1ccc(O)c(-c2cc(CCCC(=O)O)ccc2OCc2ccc(Br)cc2F)c1

>  <inhibition at 0.1 µg/mL (%)>
62.6

$$$$
>  <compound>
COc1ccc(CCCC(=O)O)cc1-c1cc(CCCC(=O)O)ccc1O

>  <inhibition at 0.1 µg/mL (%)>
52.7

$$$$
>  <compound>
CC(C)CCOc1ccc(CCC(=O)O)cc1-c1cc(CCC(=O)O)ccc1O

>  <inhibition at 0.1 µg/mL (%)>
61.9

$$$$
>  <compound>
CCCCCCCCCCCOc1ccc(CCC(=O)O)cc1-c1cc(CCC(=O)O)ccc1O

>  <inhibition at 0.1 µg/mL (%)>
81.5

$$$$
>  <compound>
O=C(O)CCCOc1ccc(CCC(=O)O)cc1-c1cc(CCC(=O)O)ccc1O

>  <inhibition at 0.1 µg/mL (%)>
60.6

$$$$
>  <compound>
CCCCOc1ccc(CCCC(=O)O)cc1-c1cc(CCCC(=O)O)ccc1O

>  <inhibition at 0.1 µg/mL (%)>
62.6

$$$$
>  <compound>
CCCOc1ccc(CCC(=O)O)cc1-c1cc(CCC(=O)O)ccc1O

>  <inhibition at 0.1 µg/mL (%)>
73.6

$$$$
>  <compound>
O=C(O)CCc1ccc(O)c(-c2cc(CCC(=O)O)ccc2OCCc2ccccc2)c1

>  <inhibition at 0.1 µg/mL (%)>
52.4

$$$$
>  <compound>
O=C(O)CCCc1ccc(O)c(-c2cc(CCCC(=O)O)ccc2OCCCCl)c1

>  <inhibition at 0.1 µg/mL (%)>
71.7

$$$$
>  <compound>
O=C(O)CCc1ccc(O)c(-c2cc(CCC(=O)O)ccc2OCc2ccccc2)c1

>  <inhibition at 0.1 µg/mL (%)>
60.8

$$$$
>  <compound>
O=C(O)CCc1ccc(O)c(-c2cc(CCC(=O)O)ccc2OC2CCCCC2)c1

>  <inhibition at 0.1 µg/mL (%)>
47.6

$$$$
>  <compound>
O=C(O)CCCc1ccc(O)c(-c2cc(CCCC(=O)O)ccc2OCc2ccccc2)c1

>  <inhibition at 0.1 µg/mL (%)>
60.6

$$$$
>  <compound>
CCCOc1ccc(CCCC(=O)O)cc1-c1cc(CCCC(=O)O)ccc1O

>  <inhibition at 0.1 µg/mL (%)>
69.2

$$$$
>  <compound>
O=C(O)CCc1ccc(O)c(-c2cc(CCC(=O)O)ccc2OCC2CCCCC2)c1

>  <inhibition at 0.1 µg/mL (%)>
73.6

$$$$
>  <compound>
CCCCCCCCOc1ccc(CCCC(=O)O)cc1-c1cc(CCCC(=O)O)ccc1O

>  <inhibition at 0.1 µg/mL (%)>
73.1

$$$$
>  <compound>
O=C(O)CCc1ccc(O)c(-c2cc(CCC(=O)O)ccc2OCc2ccc(Br)cc2F)c1

>  <inhibition at 0.1 µg/mL (%)>
54

$$$$
>  <compound>
O=C(O)CCc1ccc(O)c(-c2cc(CCC(=O)O)ccc2OCC2CCCCO2)c1 (stereo not shown)

>  <inhibition at 0.1 µg/mL (%)>
50.4

$$$$
>  <compound>
O=C(O)CCCc1ccc(O)c(-c2cc(CCCC(=O)O)ccc2OCC2CCCCC2)c1

>  <inhibition at 0.1 µg/mL (%)>
73.1

$$$$
>  <compound>
COc1ccc(CCC(=O)O)cc1-c1cc(CCC(=O)O)ccc1O

>  <inhibition at 0.1 µg/mL (%)>
51.4

$$$$
>  <compound>
CC(C)CCOc1ccc(CCCC(=O)O)cc1-c1cc(CCCC(=O)O)ccc1O

>  <inhibition at 0.1 µg/mL (%)>
61.2

$$$$
>  <compound>
CCOc1ccc(CCCC(=O)O)cc1-c1cc(CCCC(=O)O)ccc1O

>  <inhibition at 0.1 µg/mL (%)>
63.9

$$$$
>  <compound>
CCCCCCCOc1ccc(CCC(=O)O)cc1-c1cc(CCC(=O)O)ccc1O

>  <inhibition at 0.1 µg/mL (%)>
65.3

$$$$
